Biological target: T1, 4H733-AA
T1 chain: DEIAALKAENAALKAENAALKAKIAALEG
Test: two-hybrid library CCmax;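 note: natural log of median RNA to DNA barcode read ratio; higher means stronger binding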
Conditions: mean of both orientations
# interaction score per entry

- binder: "DKIAALEAKNAALEAEIAALKAKNAALEG [4H2447-AA]"
  interaction score: -1.83
- binder: "DEIAALKAENAALKAEIAALKAENAALKG [4H716-AA]"
  interaction score: -1.28
- binder: "DENAALKAKIAALEAKNAALEAKIAALEG [4H1845-AA]"
  interaction score: -1.33
- binder: "DKNAALEAKIAALEAEIAALEAEIAALKG [4H3330-AA]"
  interaction score: -1.48
- binder: "DKIAALEAEIAALKAENAALKAKNAALEG [4H2143-AA]"
  interaction score: -1.41
- binder: "DKIAALEAEIAALKAKIAALEAENAALKG [4H2148-AA]"
  interaction score: -1.59
- binder: "DKIAALEAENAALKAKNAALEAEIAALKG [4H2290-AA]"
  interaction score: -1.79
- binder: "DKIAALEAKNAALEAENAALKAEIAALKG [4H2458-AA]"
  interaction score: -1.61
